These data points were gathered from ChEMBL document CHEMBL1275510.

METHOD DESCRIPTION: Cmax in Neisseria gonorrhoeae infected patient at 400 mg, po
Assay type: ADME, organism-based
Design: dose 400 mg, route oral
PARTICULARS: human, in vivo
For each record, write down the corresponding Cmax.
Please state the figure in ng/mL; there is no need to write the unit.

Which Cmax value is on record for Nc1nc(/C(=C/CC(=O)O)C(=O)N[C@@H]2C(=O)N3C(C(=O)O)=CCS[C@H]23)cs1 ?
15000

Give the measured Cmax of C=CC1=C(C(=O)O)N2C(=O)[C@@H](NC(=O)/C(=N\OCC(=O)O)c3csc(N)n3)[C@H]2SC1 .
3000

* * *

METHOD DESCRIPTION: Oral bioavailability in Neisseria gonorrhoeae infected patient at 400 mg, po
Assay type: ADME, organism-based
PARTICULARS: human, in vivo
Exercise: state measured bioavailability for each of the compounds provided.
Numeric answer only, unit % assumed.

Field request: bioavailability | item: C=CC1=C(C(=O)O)N2C(=O)[C@@H](NC(=O)/C(=N\OCC(=O)O)c3csc(N)n3)[C@H]2SC1
50

// bioavailability lookup, key: Nc1nc(/C(=C/CC(=O)O)C(=O)N[C@@H]2C(=O)N3C(C(=O)O)=CCS[C@H]23)cs1
80
